Experiment: in vitro
Settings: human, hela cells, % viability
# label = YES if viability at 28.5 h, 10 µM < 90% else NO

Q: Does COc1ccc(CN[C@H]2[C@H](O)[C@@H](N3CCN(C(C)=O)CC3)[C@@H]3OC[C@H]2O3)cc1 [CBK288808] have viability at 28.5 h, 10 µM strictly under 90%?
Result: NO

Q: Again, but for CCc1c(C)nc2c(C(=O)NCCSC)cnn2c1C [CBK162147]
Result: NO

Q: Again, but for O=C(N/N=C/c1ccc(Br)s1)c1cccc([N+](=O)[O-])c1 [CBK261354]
Result: NO

Q: Again, but for CCCC/C=C/c1cnc(N)c(-c2ccc(O)cc2)n1 [CBK064068]
Result: NO

Q: Again, but for COc1ccccc1C(C)N(C)CCC(=O)Nc1cc(C)on1 (centres unmarked) [CBK305098]
Result: NO

Q: Again, but for Cc1n[nH]c(C)c1CNC(=O)c1[nH]c2c(Cl)cccc2c1C [CBK282534]
Result: NO

Q: Again, but for Cc1cc2c(s1)c1cnn(CC(=O)NC3CCCC3)c(=O)c1n2C [CBK284189]
Result: YES

Q: Again, but for CC(Cc1cccs1)NC(=O)c1cc(-c2ccccn2)n[nH]1 (centres unmarked) [CBK282446]
Result: NO

Q: Again, but for O=[N+]([O-])c1ccc(NCCNc2nc3ccccc3nc2N2CCOCC2)cc1 [CBK266342]
Result: NO

Q: Again, but for Cn1ccnc1C1(O)CC2CCC(C1)N2C(=O)NCc1ccccc1 (centres unmarked) [CBK284050]
Result: YES

Q: Again, but for CCn1c(SCC(=O)N/N=C/C(C)=C/c2ccccc2)nc2ccccc21 [CBK263178]
Result: NO

Q: Again, but for COCCNC(=O)C(C)SCc1ccccc1 (centres unmarked) [CBK028889]
Result: YES

Q: Again, but for O=C(NCCCN1CCOCC1)NC(=O)c1ccc(Cl)cc1 [CBK269531]
Result: NO

Q: Again, but for O=C1c2ccccc2NC(c2cnc3ccccc3n2)N1O (centres unmarked) [CBK288357]
Result: YES

Q: Again, but for Cc1cc(NC(=O)OCc2cccnc2C)c2ccccc2n1 [CBK200129]
Result: NO

====

Assay: in vitro
Conditions: human, hela cells, % viability, bulk resorufin, single well
experimentalEndpoint: viability at 28.5 h, 10 µM (%)
Quick note: give the figure in %, leave out the unit.

Q: # input compound: O=C1OC(c2c(O)nc(=O)[nH]c2O)c2ccccc21 (stereo not drawn) ; wanted: its viability at 28.5 h, 10 µM
Result: 113

Q: Again, but for "c1ccc(-c2ccc3c(c2)OC2(CCNCC2)O3)cc1"
Result: 103

Q: Again, but for "CC(=O)N1CCC2(CC1)OCc1cc(-c3ccc(C)o3)ccc1O2"
Result: 87.1

Q: Again, but for "Cc1ccc(OP(=O)(NCCN2CCOCC2)Oc2ccc(C)cc2)cc1"
Result: 107

Q: Again, but for "COc1cccc2c1OC1(CCN(C(=O)C3CCC3)CC1)OC2"
Result: 85.4

Q: Again, but for "CCOC(=O)N1CCC2(CC1)OCc1ccc(-c3ccc(S(C)(=O)=O)cc3)cc1O2"
Result: 86.1

Q: Again, but for "CCOC(=O)C1(c2ccccc2)CCN(C(=O)c2ccc3ncccc3c2)CC1"
Result: 107

Q: Again, but for "CCOC(=O)N1CCC2(CC1)Oc1ccc(-c3cccc4ncccc34)cc1O2"
Result: 99.8

Q: Again, but for "COc1ccc(Cn2nc(C(=O)NCc3ccco3)c3ccccc32)cc1"
Result: 63.3
